target under test: Akt1 (Homo sapiens)
Sequence (P31749 whole entry): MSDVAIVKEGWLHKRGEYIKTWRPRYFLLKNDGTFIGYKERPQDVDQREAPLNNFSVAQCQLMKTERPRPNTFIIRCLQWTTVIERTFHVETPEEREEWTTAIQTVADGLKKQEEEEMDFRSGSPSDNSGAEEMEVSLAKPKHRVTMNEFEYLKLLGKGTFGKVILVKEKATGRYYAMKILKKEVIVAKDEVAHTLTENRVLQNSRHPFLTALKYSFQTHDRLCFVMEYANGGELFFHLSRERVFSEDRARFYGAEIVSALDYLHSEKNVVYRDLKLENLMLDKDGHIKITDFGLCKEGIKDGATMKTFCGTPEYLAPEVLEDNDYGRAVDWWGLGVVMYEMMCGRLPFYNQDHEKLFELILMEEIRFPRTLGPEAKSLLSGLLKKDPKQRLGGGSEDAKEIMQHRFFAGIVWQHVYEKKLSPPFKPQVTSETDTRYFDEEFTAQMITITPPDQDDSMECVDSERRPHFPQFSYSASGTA
test readout: IC50

API: value(readout=IC50, system=Akt1 (Homo sapiens)) for record CC(C)CCN[C@@H]1CCc2cc(O)c(N3CC(=O)NS3(=O)=O)c(F)c2C1 [AC484, ABBV-CLS-484] > 10 µM

----------
target under test: CSF1R (Homo sapiens)
Sequence (P07333 whole entry): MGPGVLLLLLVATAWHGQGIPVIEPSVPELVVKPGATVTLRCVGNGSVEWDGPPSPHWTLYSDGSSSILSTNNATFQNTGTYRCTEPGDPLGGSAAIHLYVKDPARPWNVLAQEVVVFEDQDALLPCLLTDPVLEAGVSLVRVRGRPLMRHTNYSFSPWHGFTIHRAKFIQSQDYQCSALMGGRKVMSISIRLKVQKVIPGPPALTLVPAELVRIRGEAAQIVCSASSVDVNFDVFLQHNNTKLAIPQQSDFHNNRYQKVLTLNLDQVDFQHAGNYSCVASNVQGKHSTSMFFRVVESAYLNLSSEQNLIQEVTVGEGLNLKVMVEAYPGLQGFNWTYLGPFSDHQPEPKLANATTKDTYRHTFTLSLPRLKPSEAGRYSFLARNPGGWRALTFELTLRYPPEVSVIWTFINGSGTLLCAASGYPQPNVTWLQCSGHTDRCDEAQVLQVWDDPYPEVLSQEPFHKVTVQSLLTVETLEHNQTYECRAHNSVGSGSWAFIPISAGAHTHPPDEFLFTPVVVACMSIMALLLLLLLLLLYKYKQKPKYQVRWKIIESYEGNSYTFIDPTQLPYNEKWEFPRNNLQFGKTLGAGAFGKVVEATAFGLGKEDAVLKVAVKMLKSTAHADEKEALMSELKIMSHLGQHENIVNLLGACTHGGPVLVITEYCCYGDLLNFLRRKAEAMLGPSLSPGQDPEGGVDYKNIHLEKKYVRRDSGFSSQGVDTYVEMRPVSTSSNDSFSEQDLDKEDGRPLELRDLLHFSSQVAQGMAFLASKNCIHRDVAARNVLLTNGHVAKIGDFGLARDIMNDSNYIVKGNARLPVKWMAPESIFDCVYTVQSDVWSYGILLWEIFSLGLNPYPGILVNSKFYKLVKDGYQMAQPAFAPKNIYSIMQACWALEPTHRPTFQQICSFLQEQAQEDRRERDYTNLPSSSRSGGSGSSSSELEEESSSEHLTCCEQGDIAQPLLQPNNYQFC
test readout: IC50

API: value(readout=IC50, system=CSF1R (Homo sapiens)) for record CC(C)CCN[C@@H]1CCc2cc(O)c(N3CC(=O)NS3(=O)=O)c(F)c2C1 > 10 µM

----------
target under test: TNK2 (Homo sapiens, UniProt Q07912)
Sequence (Q07912 whole entry): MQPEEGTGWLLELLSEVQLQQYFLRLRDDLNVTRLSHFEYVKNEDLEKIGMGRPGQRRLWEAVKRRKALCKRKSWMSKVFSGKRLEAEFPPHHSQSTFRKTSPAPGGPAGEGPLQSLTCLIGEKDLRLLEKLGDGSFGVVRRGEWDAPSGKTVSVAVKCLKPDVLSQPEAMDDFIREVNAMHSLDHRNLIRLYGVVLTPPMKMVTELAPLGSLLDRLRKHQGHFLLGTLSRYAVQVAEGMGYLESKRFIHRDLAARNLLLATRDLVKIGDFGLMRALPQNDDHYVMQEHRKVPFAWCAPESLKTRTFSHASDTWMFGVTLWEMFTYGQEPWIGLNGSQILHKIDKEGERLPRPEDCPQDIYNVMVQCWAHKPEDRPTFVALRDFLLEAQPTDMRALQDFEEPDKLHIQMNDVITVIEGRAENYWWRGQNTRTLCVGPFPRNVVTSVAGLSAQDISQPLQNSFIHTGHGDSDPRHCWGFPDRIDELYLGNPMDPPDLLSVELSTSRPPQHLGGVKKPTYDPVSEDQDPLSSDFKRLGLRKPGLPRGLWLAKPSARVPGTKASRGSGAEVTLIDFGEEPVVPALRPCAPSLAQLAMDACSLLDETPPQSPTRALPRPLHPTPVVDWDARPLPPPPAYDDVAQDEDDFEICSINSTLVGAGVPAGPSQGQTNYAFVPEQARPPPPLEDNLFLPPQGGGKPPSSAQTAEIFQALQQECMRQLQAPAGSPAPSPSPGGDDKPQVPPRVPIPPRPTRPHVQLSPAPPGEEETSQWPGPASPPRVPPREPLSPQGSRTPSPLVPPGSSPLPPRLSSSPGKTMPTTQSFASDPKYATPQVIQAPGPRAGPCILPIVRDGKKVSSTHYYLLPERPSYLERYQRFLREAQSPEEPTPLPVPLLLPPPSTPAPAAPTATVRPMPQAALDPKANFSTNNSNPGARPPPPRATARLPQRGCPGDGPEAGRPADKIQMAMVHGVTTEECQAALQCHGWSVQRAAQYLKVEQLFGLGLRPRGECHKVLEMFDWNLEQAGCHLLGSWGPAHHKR
test readout: IC50

API: value(readout=IC50, system=TNK2 (Homo sapiens, UniProt Q07912)) for record CC(C)CCN[C@@H]1CCc2cc(O)c(N3CC(=O)NS3(=O)=O)c(F)c2C1 [AC484, ABBV-CLS-484] > 10 µM
